Ref: PubChem BioAssay (NCI)

Tested on: SNB-75 CNS
measurementNotes: NCI-60 one-dose screen, 48 h (100 = growth as untreated, 0 = no growth, -100 = all killed)
experimentalParameters: 10 µM unless noted
This is part of a sample that, as a whole, favours compounds with a hit. Of some 83,000 tested, about 20% had one in any assay.
readoutKind: growth (%)
Output spec: scalar in %, unitless text.

Here are 3 molecules together with their reported answers.
O=S(=O)(NCCNc1nccc(-c2c(-c3ccc(F)c(O)c3)nc3sccn23)n1)c1ccc(F)cc1    64.1
CN(CCCNC(=O)CCOCCOCCOCCNC(=O)Cc1ccc2ccc3cccc4ccc1c2c34)CCCNc1cc(-c2ccc3ccccc3c2)nc2ccccc12    -95.7
C=C(C)[C@@H]1CC[C@]2(COC(C)=O)CC[C@]3(C)[C@H](CC[C@@H]4[C@@]5(C)CCCN(C(C)=O)C(C)(C)[C@@H]5CC[C@]43C)[C@@H]12    108

Name the recorded growth of the item Cc1cccc2c1C[C@@]1(C2=O)C(c2ccc(C(C)(C)C)cc2)=NOS1=O (stereo partly specified) in your answer. 101

Name the recorded growth of the item O=C(CSc1nnc(-c2cc(-c3ccccc3)nc3ccccc23)n1-c1ccccc1)Nc1ccc(C(=O)/C=C/c2ccc(Cl)cc2)cc1 in your answer. 97.3

Name the recorded growth of the item CN1CCN(Cc2ccc(NC(=O)c3cncc(C#Cc4cnc5ccc(Cl)nn45)c3)cc2C(F)(F)F)CC1 in your answer. -52.4
